Tested on: HCT-116 colon
Test: NCI tumour cell line growth inhibition, 48 h
log10 TGI listing for selected compounds.
endpoint: log10 TGI (log10 of the value in µM)

>>> print(df.to_string())
                                   compound  number
0  Cc1ncc(C(=O)Nc2ccc(CN3CCN(C)CC3)c(C(F)(F)F)c2)cc1C#Cc1cnc(N)c2cnccc12    0.09
1  CC(N)C(=O)OCN1C(=O)C2C3C=CC(C2C1=O)C1C2C(=O)N(COC(=O)C(C)N)C(=O)C2C31 (stereo not given)    1.65
2  C=C(C)[C@@H]1CC[C@]2(C(N)=O)CC[C@]3(C)[C@H](CC[C@@H]4[C@@]5(C)CC[C@H](O)C(C)(C)[C@@H]5CC[C@]43C)[C@@H]12    0.60
3          CCCc1cc(=O)oc2c(C=O)c(O)cc(O)c12    1.67
4  O=C1C=CC(=O)c2c1cc([N+](=O)[O-])c1ccoc21    1.10
5             CC(C)CCSC1=CC(=O)c2ccccc2C1=O    0.46
